System: OVCAR-8 ovarian
test-protocol: NCI-60 one-dose screen, 48 h (100 = growth as untreated, 0 = no growth, -100 = all killed)
run-parameters: 10 µM unless noted
Compounds without any hit were thinned out: in the full panel of roughly 83,000, 20% have a hit.
We use 50% as the dividing line for growth: on or above the line is Y, below is N.

| molecule | class-label |
| --- | --- |
| COc1cc(CNC(=O)C[C@H](C)CCC=C(C)C)ccc1OCc1cn(-c2ccc(Cl)c(Cl)c2)nn1 | N |
| COc1sc(/C=N/NC(=O)c2[nH]c3ccc(Br)cc3c2-c2ccccc2)cc1Cl | N |
| O=C(NN1C(=O)/C(=C/C=C/c2ccc([N+](=O)[O-])o2)SC1=S)c1ccc(O)cc1 | N |
| CC[C@]12C=CCN3CC[C@]4(C(=C(C(=O)OC)C1)Nc1cc(OC)c([C@@H]5[C@H]6O[C@H]6[C@@]6(CC)CC(C(=O)OC)=C7Nc8cc(OC)ccc8[C@@]78CCN5[C@@H]68)cc14)[C@@H]32 | Y |
| COc1ccc(CCC2NCCc3c(Br)c4c(c(OC)c32)OCO4)cc1 (centres undefined) | N |
| ClC(Cn1ncc2c(Nc3cccc(Br)c3)nc(SCCN3CCOCC3)nc21)c1ccc(Br)cc1 (centres undefined) | N |
| COc1ccc(Nc2nnc(-c3c[nH]c4ccccc34)o2)cc1 | Y |
| COc1cc(/C=C/C(=O)c2cnn(-c3cc(=O)[nH]c4ccc(C)cc34)c2C)cc(OC)c1OC | N |
| COc1cc(/C=N/NC(=O)c2ccc(OCc3nc4ccc(C)cc4[nH]3)cc2)cc(OC)c1OC | N |
| O=C(Nc1ccc(-c2ccc3c(c2)NC(=O)/C3=C\c2ccc[nH]2)cc1)Nc1cccc(Cl)c1 | N |
| N#Cc1ccc(C(=O)NNC(=O)CSc2nc3sc4c(c3c(=O)n2-c2ccc(Cl)cc2)CCCC4)cc1 | N |
| O=C(NN1C(=O)/C(=C/C=C/c2ccc([N+](=O)[O-])o2)SC1=S)c1ccncc1 | N |
| Oc1ccc(F)c(Nc2nc(SCCN3CCOCC3)nc3c2cnn3CC(Cl)c2ccc(Br)cc2)c1 (centres undefined) | N |
| CN(CCSSCCN1CCOCC1)C(=O)Oc1cc2c(c3ccccc13)[C@H](CCl)CN2C(=O)c1cc2cc(OCCCN3CCC3)ccc2[nH]1 | N |
| CN1C(=O)C2(C(C#N)=C(c3ccc(Cl)cc3)Nc3c2c(-c2ccccc2)nn3-c2ccccc2)c2ccccc21 (centres undefined) | Y |
| Cc1ccccc1Nc1nnc(-c2c[nH]c3ccccc23)o1 | N |
| C=CC(=O)N1CCN(c2ccc3nc4c(nc3c2C(F)(F)F)C(=O)c2ncccc2C4=O)CC1 | N |
| O=C(Nc1ccc(S(=O)(=O)N2CCCCC2)cc1)C(Cl)Cl | Y |
| O=c1[nH]c2ccccc2cc1COc1ccc(Nc2nccc(-c3ccc(Cl)cc3)n2)cc1 | Y |
| c1n[nH]cc1-c1nc2ccc3[nH]ncc3c2c2c1CC1(CCOCC1)CC2 | N |
| Cc1ccc(C(=O)Nc2cc(-n3ccnc3)cc(C(F)(F)F)c2)cc1-n1cc(-c2cnc3cccnn23)nn1 | Y |
| COc1ccc(N=Nc2c(N)nn3c(-c4cc5ccccc5oc4=O)ccnc23)cc1 | N |
| C=CCSc1nnc(-c2ccc(-c3nc4ccc(Cl)cc4[nH]3)cc2)o1 | Y |
| CN1C(=O)/C(=C/c2ccco2)S/C1=N/c1nccs1 | Y |
| Nc1ccc(-c2ccc3ncnc(N4CCc5cc(F)c(Cl)cc54)c3c2)cn1 | N |
| COC(=O)c1c(C(=O)OC)c2ccc3c4ccccc4ccc3n2c1C(=O)C(C)Br (centres undefined) | N |
| Cc1ccc(/C=C/C(=O)c2ccc(S(=O)(=O)NCCNc3nc(N(C)C)nc(N4CCOCC4)n3)cc2)cc1 | Y |
| Cn1cc(-c2cc(N)n3nc(-c4c[nH]c5ccc(Cl)cc45)cc3n2)c2cc(Br)cnc21 | N |
| Cn1cc(Nc2ncnc(-c3ccc(N4CCCC4)c(C#N)c3)n2)cn1 | Y |
